IC50 values for the compounds below.
target: GPR17 (Homo sapiens, UniProt Q13304); experiment: Calcium mobilization functional assay (GPR17 Ca2+ assay); type: cell-based; design: host or cells: Flp-In T-REx CHO; conditions: CHO hGPR17 cells, inhibition of 50 nM MDL29,951, Calcium 5 dye, FLIPR; read-out: Ca2+ assay pIC50 (converted)
Sequence (Q13304 whole entry): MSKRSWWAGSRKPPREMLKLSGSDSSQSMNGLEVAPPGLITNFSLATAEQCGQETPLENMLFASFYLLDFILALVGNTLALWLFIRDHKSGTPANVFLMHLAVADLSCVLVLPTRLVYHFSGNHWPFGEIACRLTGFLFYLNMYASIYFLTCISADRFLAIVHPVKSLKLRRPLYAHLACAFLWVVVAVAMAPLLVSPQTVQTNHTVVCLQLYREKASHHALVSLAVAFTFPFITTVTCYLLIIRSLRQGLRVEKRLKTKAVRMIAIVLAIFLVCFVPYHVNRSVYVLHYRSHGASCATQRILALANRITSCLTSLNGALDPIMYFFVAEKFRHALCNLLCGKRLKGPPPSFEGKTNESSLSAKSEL

N#CCCc1cc(F)c(NS(=O)(=O)c2c[nH]c3c2ccc2cccnc23)cc1F :: 3.16 to 31.6 nM
N#Cc1c(Cl)ccc2c(S(=O)(=O)Nc3cc(F)c(Cl)cc3F)c[nH]c12 :: < 3.16 nM
O=S(=O)(Nc1ccc(C(F)(F)F)cc1F)c1c[nH]c2cc(Cl)ccc12 :: 3.16 to 31.6 nM

Please indicate recorded IC50 of N#Cc1ccc2c(S(=O)(=O)Nc3cc(F)c(OC(F)F)cc3F)c[nH]c2c1 measured with GPR17 (Homo sapiens, UniProt Q13304). 3.16 to 31.6 nM

Please indicate recorded IC50 of COCCOc1cc(F)c(NS(=O)(=O)c2c[nH]c3cc(Cl)ccc23)nc1F measured with GPR17 (Homo sapiens, UniProt Q13304). 3.16 to 31.6 nM

Please indicate recorded IC50 of N#Cc1cc(F)c(NS(=O)(=O)c2c[nH]c3ccccc23)cc1F measured with GPR17 (Homo sapiens, UniProt Q13304). 3.16 to 31.6 nM

Please indicate recorded IC50 of N#Cc1ccc(NS(=O)(=O)c2c[nH]c3c2ccc2ccccc23)c(F)c1 measured with GPR17 (Homo sapiens, UniProt Q13304). < 3.16 nM

Please indicate recorded IC50 of CC(=O)c1ccc(NS(=O)(=O)c2c[nH]c3cc(Cl)ccc23)c(F)c1 measured with GPR17 (Homo sapiens, UniProt Q13304). 3.16 to 31.6 nM

Please indicate recorded IC50 of O=S(=O)(Nc1cccc2nsnc12)c1c[nH]c2c1ccc1cccnc12 measured with GPR17 (Homo sapiens, UniProt Q13304). 3.16 to 31.6 nM

Please indicate recorded IC50 of N#Cc1ccc(NS(=O)(=O)c2c[nH]c3c(Cl)cccc23)cc1 measured with GPR17 (Homo sapiens, UniProt Q13304). > 31.6 nM

Please indicate recorded IC50 of O=S(=O)(Nc1ccc(F)c2nsnc12)c1c[nH]c2cc(Cl)ccc12 measured with GPR17 (Homo sapiens, UniProt Q13304). 3.16 to 31.6 nM

----------
biological target: UniProt Q13304; test: Calcium mobilization functional assay (GPR17 Ca2+ assay); assay type: cell-based; design: host or cells: Flp-In T-REx CHO; settings: CHO hGPR17 cells, inhibition of 50 nM MDL29,951, Calcium 5 dye, FLIPR; read-out: Ca2+ assay pIC50 (converted)
IC50 values for the compounds below.

Consider the reported IC50 for these compounds:
O=S(=O)(Nc1cccc2nsnc12)c1c[nH]c2nc(Br)ccc12 [Compound I-78] :: < 0.00316 µM
COc1cc(F)c(NS(=O)(=O)c2c[nH]c3cc(Cl)ccc23)cc1F [Compound I-298] :: 0.00316 to 0.0316 µM
O=S(=O)(Nc1cc2nsnc2cc1F)c1c[nH]c2c1ccc1ccccc12 [Compound I-160] :: < 0.00316 µM
O=S(=O)(Nc1ccc2nsnc2c1)c1c[nH]c2nc(Cl)ccc12 [Compound I-179] :: < 0.00316 µM
COCc1ccc(NS(=O)(=O)c2c[nH]c3cc(Cl)ccc23)cc1 [Compound I-122] :: > 0.0316 µM

Look up and state reported IC50 for O=S(=O)(Nc1ccc(I)cc1F)c1c[nH]c2nc(Br)ccc12 [Compound I-104] < 0.00316 µM

Look up and state reported IC50 for N#Cc1cc(F)c(NS(=O)(=O)c2c[nH]c3cc(F)ccc23)cc1F [Compound I-165] < 0.00316 µM

Look up and state reported IC50 for COc1ccc2c(S(=O)(=O)Nc3ccc(Br)cc3F)c[nH]c2c1 [Compound I-293] 0.00316 to 0.0316 µM

Look up and state reported IC50 for N#Cc1ccc(NS(=O)(=O)c2c[nH]c3c4c(ccc23)CCC4)cc1F [Compound I-149] 0.00316 to 0.0316 µM

Look up and state reported IC50 for O=S(=O)(Nc1cc(F)c(Cl)cc1F)c1c[nH]c2c1ccc1cccnc12 [Compound I-118] < 0.00316 µM

Look up and state reported IC50 for CS(=O)(=O)c1ccc2c(S(=O)(=O)Nc3cccc4c3OCO4)c[nH]c2c1 [Compound I-33] > 0.0316 µM

Look up and state reported IC50 for O=S(=O)(Nc1cc2c(cc1F)OC(F)(F)O2)c1c[nH]c2c1ccc1cccnc12 [Compound I-70] > 0.0316 µM

Look up and state reported IC50 for O=S(=O)(Nc1nc(F)c(Cl)cc1F)c1c[nH]c2c3c(ccc12)CCC3 [Compound I-317] 0.00316 to 0.0316 µM

Look up and state reported IC50 for O=S(=O)(Nc1cccc2nsnc12)c1c[nH]c2cc(Br)ccc12 [Compound I-110] < 0.00316 µM

Look up and state reported IC50 for O=S(=O)(Nc1ccc(Cl)cn1)c1c[nH]c2cc(Cl)ccc12 [Compound I-63] > 0.0316 µM
